Taken from ChEMBL document CHEMBL1138098.

# Tested on: JAR
# TEST_NAME: Induction of PIG3 production in JAR cells at 1.1 uM
# Format: functional, Homo sapiens
In plain terms, low Activity, meaning strictly below 40 ng/mg, gives Condition met, and everything else gives Condition not met.

                                    compound        label_value
 0  CN1CCN(CCCCN2C(=O)[C@H](c3ccc(Cl)cc3)N(Cc3ccc(Cl)cc3N)C(=O)c3cc(I)ccc32)CC1  Condition not met
 1  C[C@H](c1cc(F)c(Cl)cc1N)N1C(=O)c2cc(I)ccc2N(CCN2CCOCC2)C(=O)[C@@H]1c1ccc(Cl)cc1      Condition met
 2  COCCOCCN1C(=O)[C@H](c2ccc(Cl)cc2)N(Cc2ccc(Cl)cc2O)C(=O)c2cc(I)ccc21  Condition not met
 3  CC(c1ccc(Cl)cc1)N1C(=O)c2cc(I)ccc2N(CCCCC(=O)O)C(=O)[C@@H]1c1ccc(Cl)cc1 (stereo partly drawn)  Condition not met
 4  CN1CCN(CCCN2C(=O)[C@H](c3ccc(Cl)cc3)N(Cc3ccc(Cl)cc3N)C(=O)c3cc(I)ccc32)CC1  Condition not met
 5  Nc1cc(Cl)ccc1CN1C(=O)c2cc(I)ccc2N(CCCN2CCOCC2)C(=O)[C@@H]1c1ccc(Cl)cc1  Condition not met
 6  CN(C)CCCCN1C(=O)[C@H](c2ccc(Cl)cc2)N(Cc2ccc(Cl)cc2N)C(=O)c2cc(I)ccc21      Condition met
 7  C[C@H](c1cc(O)c(Cl)cc1N)N1C(=O)c2cc(I)ccc2N(CCN2CCOCC2)C(=O)[C@@H]1c1ccc(Cl)cc1      Condition met
 8  COCCOCCN1C(=O)[C@H](c2ccc(Cl)cc2)N([C@H](C)c2ccc(Cl)cc2N)C(=O)c2cc(I)ccc21  Condition not met
 9  Nc1cc(Cl)ccc1CN1C(=O)c2cc(I)ccc2N(CCCCC(=O)O)C(=O)[C@@H]1c1ccc(Cl)cc1  Condition not met
10  CC(c1ccc(Cl)cc1N)N1C(=O)c2cc(I)ccc2N(CCCCC(=O)O)C(=O)[C@@H]1c1ccc(Cl)cc1 (stereo partly drawn)  Condition not met
11  CN(C)CCCN1C(=O)[C@H](c2ccc(Cl)cc2)N(Cc2ccc(Cl)cc2N)C(=O)c2cc(I)ccc21      Condition met
12  C[C@H](c1ccc(Cl)cc1N)N1C(=O)c2cc(I)ccc2N(CCN2CCOCC2)C(=O)[C@@H]1c1ccc(Cl)cc1  Condition not met
